Task for the reader: assign each of the following compounds its reported TGI.
# System: SN12C renal
# procedure.text: NCI tumour cell line growth inhibition, 48 h

I am curious: what TGI value has been reported for O=C(N/N=C(/CCN1CCCC1)CC(c1ccccc1)c1c(O)c2ccccc2oc1=O)c1ccncc1 (stereo not drawn) ? > 100 µM

COc1ccccc1CN=C1Nc2ccncc2S(=O)(=O)N1c1ccccc1 , same question. > 100 µM

NC(=O)c1cc2c3ccccc3ccn2c1-c1ccccc1 , same question. 15.2 µM

CCC[n+]1cc2cc(OC)c(OC)cc2c2c1-c1cc3c(cc1C2)OCO3 , same question. 6.84 µM

COc1cc(C(c2c(O)c3ccccc3oc2=O)c2c(O)c3ccccc3oc2=O)cc(Br)c1O , same question. 29.8 µM

COc1ccc(/C=C2\CCCC(C(NO)c3ccc(OC)cc3)C2=NO)cc1 (stereo not drawn) , same question. > 100 µM

CC[O-].CC[O-].O=S(=O)([O-])c1ccc([O-])c2ncccc12.O=S(=O)([O-])c1ccc([O-])c2ncccc12.[Ti+4] , same question. > 100 µM

CCOC(=O)/C=C/C1=C(c2cccs2)c2ccccc2CC1 , same question. > 100 µM

Cc1ccc(-c2cc(-c3ccccc3)c(C#N)c(=O)n2C2OC(CO)C(O)C(O)C2O)cc1 (stereo not drawn) , same question. > 100 µM

COc1cc(S(=O)(=O)Nc2ccc(C(=O)/C=C/c3ccc(O)cc3)cc2)ccc1F , same question. 89.7 µM

CC(C)N1CC2CC(CN(C(=O)c3ccccc3)C2)C1 , same question. > 100 µM

O=[N+]([O-])c1cnn(C2=CNc3ccccc3N=C2)c1 , same question. > 100 µM

O=C(O)C1CCCCC1C(=O)O.[NH-]C1CCC1.[NH2-].[Pt+2] (stereo not drawn) , same question. 26.7 µM

CCN(CC)C(=S)SC , same question. > 100 µM

COC1OC(CO)C(O)C1N (stereo not drawn) , same question. > 100 µM

NC(=O)c1csc(C2(O)COC(CO)C2O)n1 (stereo not drawn) , same question. > 100 µM

O=C1C=CC=C/C1=C1\N=C(c2ccccc2OCC(=O)c2ccccc2)SS1 , same question. > 100 µM

CC(CCC(=O)O)C(=O)O (stereo not drawn) , same question. > 100 µM

N#CC1(O)CCCCCCCCCCC1 , same question. > 100 µM

COc1ccc(Cn2cc3c(c2)-c2oncc2CC3)cc1 , same question. > 100 µM

Nc1ccccc1C#C/C=C\C#Cc1ccccc1[N+](=O)[O-] , same question. 13.7 µM

Cc1cc(C)c2c(=O)cc(-c3cccc(F)c3)[nH]c2n1 , same question. 20.3 µM

CC1C(NNc2ccccc2)Oc2cc3c(cc2C1c1ccccc1O)OCO3 (stereo not drawn) , same question. 20.1 µM

Nc1ccc(C(=O)CC(N)C(=O)O)cc1O (stereo not drawn) , same question. > 100 µM

O=c1cc(-c2ccncc2)[nH]c2cc3c(cc12)OCO3 , same question. > 100 µM

OCCOCn1nncc1Cn1ncc2c(SCc3ccccc3)ncnc21 , same question. > 100 µM

Cc1cc(C)c(C(=O)c2no[n+]([O-])c2C(=O)c2c(C)cc(C)c(Br)c2C)c(C)c1Br , same question. 33.4 µM

CCCCOc1ccc(OCCCCCCCCCC[N+](C)(C)C)cc1 , same question. 12.2 µM

O=C(OCCN=c1c2ccccc2ccc2ccccc12)c1ccccc1 , same question. > 100 µM

CCOP(=O)(OCC)OC(C#N)c1ccc(-c2ccccc2)cc1 (stereo not drawn) , same question. 36.8 µM

Cc1cc2c(O)c(c1)CN(CC(=O)O)Cc1cc(C)cc(c1O)CN(CC(=O)O)Cc1cc(C)cc(c1O)CN(CC(=O)O)C2 , same question. > 100 µM

COc1ccc2nc(/C(N)=C\C#N)ccc2c1 , same question. > 100 µM

O=C1NC2CCCCC2N=C1CC(=O)c1ccc(Br)cc1 (stereo not drawn) , same question. > 100 µM

CCc1c(CNc2ccc(C(=O)NC(CC(=O)O)C(=O)O)cc2)ccc2nc(N)nc(N)c12 (stereo not drawn) , same question. > 1000 µM

COc1ccc(OC2OC(CO)C(OCc3ccccc3)C(OCc3ccccc3)C2OCc2ccccc2)cc1 (stereo not drawn) , same question. > 100 µM

COc1ccc(Nc2nc(N)c(C(=O)c3c[nH]c4ccccc34)s2)cc1 , same question. > 100 µM

COc1cc(/C=C2\C(=O)Nc3ccc(N(C)C)cc32)cc(OC)c1OC , same question. 42.3 µM

C=C1C(OC2O[C@@H]3O[C@@]4(C)CC[C@H]5[C@H](C)CC[C@@H](C2=C)[C@@]35O4)O[C@@H]2O[C@@]3(C)CC[C@H]4[C@H](C)CC[C@@H]1[C@@]24O3 (stereo partly drawn) , same question. > 50 µM

CC1(C)OCC2OC3([C@@H]4OC(C)(C)O[C@H]4CO)OC(C)(C)OC3C2O1 (stereo partly drawn) , same question. > 100 µM

COc1ccc(-c2ccc(-c3ccc(C(=N)N)cn3)o2)cc1 , same question. 22.5 µM

CCn1c2ccc(O)cc2c2c(C)c3c[n+](C)ccc3c(C)c21 , same question. 3.03 µM

NC(N)=NCCC1OC(=O)C2=C1c1c(O)ccc3nccc(c13)O2 (stereo not drawn) , same question. > 100 µM

CC[PH+](CC)CC.O=COC1OC([S-])C(OC=O)C(OC=O)C1OC=O.[Au+] (stereo not drawn) , same question. 2.75 µM

* * *

Task for the reader: assign each of the following compounds its reported log10(TGI).
# Test system: LOX IMVI melanoma
# procedure.text: NCI tumour cell line growth inhibition, 48 h
Remember, log10 of TGI, in µM.

I am curious: what log10(TGI) value has been reported for C/C(Cl)=N\OC(=O)Nc1ccc(C)cc1 ? 1.64

CCCCOc1ccc(OCCCCCCCCCC[N+](C)(C)C)cc1 , same question. 0.58

COc1cc(/C=C2\C(=O)Nc3ccc(N(C)C)cc32)cc(OC)c1OC , same question. 1.27

N#CCCN(CCC#N)c1ccc(C(Sc2ccccc2)C(NC(=O)c2cc([N+](=O)[O-])ccc2Cl)C(=O)Sc2ccccc2)cc1 (stereo unspecified) , same question. 0.76

NC(=O)c1cc2c3ccccc3ccn2c1-c1ccccc1 , same question. 1.21

COC(=O)C1C(C(=O)OC)C2(OC(c3ccc(Cl)cc3)=CC2=O)C12OC(c1ccc(Cl)cc1)=CC2=O (stereo unspecified) , same question. 1.76

CS(=O)(=O)CSCSSCS(C)(=O)=O , same question. 1.85

COc1ccccc1C1Nn2c(nc3ccccc3c2=O)N1c1ccc(C)cc1 (stereo unspecified) , same question. 1.32

COc1ccccc1/C=C/C(=O)c1ccccc1 , same question. 0.71

COc1ccc(N2C(=O)[C@H]3CC(C)c4c([nH]c5ccccc45)[C@H]3C2=O)cc1 (stereo partly specified) , same question. 1.80

CC1CCC2(NC1)OC1CC3C4CC=C5CC(OC6OC(CO)C(OC7OC(C)C(O)C(O)C7O)C(O)C6OC6OC(C)C(O)C(O)C6O)CCC5(C)C4CCC3(C)C1C2C (stereo unspecified) , same question. 1.30

CCCCC1=C(C(=O)N2CCOCC2)C2(OCCO2)C1=O , same question. 1.40

* * *

# Test system: HOP-62 NSCLC
# procedure.text: NCI tumour cell line growth inhibition, 48 h
Task for the reader: assign each of the following molecules its reported GI50.

I am curious: what GI50 value has been reported for Cc1c(C(=O)NCCN2CCOCC2)cn2ncnc(Oc3ccc(NC(=O)Nc4ccc(Cl)c(C(F)(F)F)c4)cc3)c12 ? 1.99 µM

O=C(O)c1ccc2c(c1)CCCC(c1ccc(Cl)cc1Cl)=C2c1ccc(O[C@H]2CCN(CCCF)C2)cc1 , same question. 15 µM

CC[O-].CC[O-].O=S(=O)([O-])c1ccc([O-])c2ncccc12.O=S(=O)([O-])c1ccc([O-])c2ncccc12.[Ti+4] , same question. 44 µM

Nc1ccccc1C#C/C=C\C#Cc1ccccc1 , same question. 15 µM

* * *

# System: SNB-19 CNS
# procedure.text: NCI tumour cell line growth inhibition, 48 h
Task for the reader: assign each of the following compounds its reported TGI.

SNB-19 CNS / TGI / Cc1nc2sccn2c1-c1csc(Nc2cccc(Cl)c2C)n1 : value? > 100 µM

C[C@]12CCC(=O)[C@@H](CCC3=CC(=O)C=CC3=O)[C@@H]1CCC2=O , same question. > 100 µM

O=C1C=CC=C/C1=C1\N=C(c2ccccc2OCC(=O)c2ccccc2)SS1 , same question. > 100 µM

O=S(=O)(O)c1ccc(N=Nc2ccc(N=Nc3ccc(/C=C/c4ccc(N=[N+]([O-])c5ccc(/C=C/c6ccc(N=Nc7ccc(N=Nc8ccc(S(=O)(=O)O)cc8)cc7)cc6S(=O)(=O)O)c(S(=O)(=O)O)c5)cc4S(=O)(=O)O)c(S(=O)(=O)O)c3)cc2)cc1 , same question. > 100 µM

Cc1cc(C)nc(NS(=O)(=O)c2ccc(Nc3c4ccccc4nc4c(C(=O)N5CCN(CCOS(C)(=O)=O)CC5)cccc34)cc2)n1 , same question. > 100 µM

Cc1ccc2nc(-c3ccc(N(C)C)c(Br)c3)cn2c1 , same question. > 100 µM

OCCNc1ncnc2c1ncn2Cc1cccc(COc2cccc(OCc3cccc(Cn4cnc5c(NCCO)ncnc54)c3)c2)c1 , same question. 30.4 µM

OC1(c2ccccc2)OC(C#Cc2ccccc2)(c2ccccc2)c2ccccc21 (configuration not stated) , same question. 26.3 µM

O=C(N/N=C(/CCN1CCCC1)CC(c1ccccc1)c1c(O)c2ccccc2oc1=O)c1ccncc1 (configuration not stated) , same question. > 100 µM

Cc1ccc(C(=O)N/N=C(\N=Nc2ccccc2)c2ccc(N(C)C)cc2)cc1 , same question. > 100 µM

Cc1cc(S(=O)(=O)NC#N)c(S/C(=N\Nc2ccc([N+](=O)[O-])cc2)c2ccc(Cl)cc2)cc1Cl , same question. > 100 µM

C=C1C(OC2O[C@@H]3O[C@@]4(C)CC[C@H]5[C@H](C)CC[C@@H](C2=C)[C@@]35O4)O[C@@H]2O[C@@]3(C)CC[C@H]4[C@H](C)CC[C@@H]1[C@@]24O3 (some centres not stated) , same question. > 50 µM

CCC(O)(Cc1ccc(OC)cc1)c1ccc(OC)cc1 (configuration not stated) , same question. > 100 µM

Cn1c(=O)c(-c2ccccc2)c(O)c2ccccc21 , same question. > 100 µM

CC[O-].CC[O-].O=S(=O)([O-])c1ccc([O-])c2ncccc12.O=S(=O)([O-])c1ccc([O-])c2ncccc12.[Ti+4] , same question. > 100 µM

O=C1c2cc(Cl)ccc2-c2c1c1ccc([N+](=O)[O-])cc1c(=O)n2CCCBr , same question. > 100 µM

CC1(C)OCC2OC3([C@@H]4OC(C)(C)O[C@H]4CO)OC(C)(C)OC3C2O1 (some centres not stated) , same question. > 100 µM
